Overview of recorded melting point for various compounds
Counter-ions that a name gives are not always drawn.

Guide cases for melting point, answers given:
// recorded melting point for Cc1cc(-c2nc3cccnn3c2-c2ccnc(NC(=O)c3ccc(C(F)(F)F)cc3)c2)ccc1F [Example 42-13] : 224 to 225 °C

// recorded melting point for Cc1cc(-c2nc3cccnn3c2-c2ccnc(NC(=O)c3ccc(Cl)cc3)c2)ccc1F (as salt: methanesulfonate) [Example 62] : 239 to 241 °C

// recorded melting point for CCC(=O)N(C(=O)CC)c1cc(-c2c(-c3cccc(C)c3)nc3cccnn23)ccn1 [Example 22] : 210 to 211 °C

// recorded melting point for CCCNC(=O)Nc1cc(-c2c(-c3ccc(F)c(C)c3)nc3cccnn23)ccn1 [Example Compound 28-4] : 231 to 232 °C

// recorded melting point for Cc1cc(-c2nc3cc(C(C)(C)C)cnn3c2-c2ccnc(N)c2)ccc1F [Example Compound 37-3] : 212 to 213 °C

***
// recorded melting point for Cc1cc(-c2nc3cccnn3c2-c2ccnc(N3CCCNC3=O)c2)ccc1F [Example 55] : 213 to 215 °C

// recorded melting point for Cc1cc(-c2nc3c([S+](C)[O-])cc(Cl)nn3c2-c2ccnc(N)c2)ccc1F (stereo not shown) [Example 57-2] : 216 to 217 °C
